- Test system: MDA-MB-231
- EXPERIMENT: NCI tumour cell line growth inhibition, 48 h
Active and inactive are the calls of the source. Cut-off read from the data, not from the text of the source: active = GI50 up to about 1.1 µM and inactive = higher.
For each entry below, report its GI50 value.

// query GI50 value for entry `Cc1c(C(C)C)cc(OCCO)cc1C(C)C`
32.9 µM (inactive)

// query GI50 value for entry `Cc1nn(-c2cc(Cl)ccc2[N+](=O)[O-])c(C)c1Cl`
48 µM (inactive)

// query GI50 value for entry `NC(=O)CSc1nc2ccccc2c(=O)n1N`
> 100 µM (inactive)

// query GI50 value for entry `CCOC(=O)Cn1c(=O)c2nc(SC)sc2n(-c2ccccc2)c1=O`
> 100 µM (inactive)

// query GI50 value for entry CCOC(=O)C(C(=O)OCC)C(=S)NC1OC(COC(C)=O)C(OC(C)=O)C(OC(C)=O)C1OC(C)=O (configuration not stated)
> 100 µM (inactive)

// query GI50 value for entry `CN(C)c1nc(Cl)c2c(-c3ccccc3)c(-c3ccccc3)oc2n1`
43 µM (inactive)

// query GI50 value for entry `CSc1ccsc1-c1sc(-c2cc(SC)c(-c3sc(-c4cc(SC)c(-c5sccc5SC)s4)cc3SC)s2)cc1SC`
> 100 µM (inactive)

// query GI50 value for entry C[N+](C)(C)CCOP(=O)(O)OP(=O)([O-])OCC1CCC(n2ccc(N)nc2=O)O1 (configuration not stated)
> 100 µM (inactive)

// query GI50 value for entry `COc1ccc(/C=C/C(=O)/C=C/c2ccc(OC)cc2OC)c(OC)c1`
29.9 µM (inactive)

// query GI50 value for entry `CNc1nc(N)nc(Nc2ccc(I)cc2)c1N=O`
> 100 µM (inactive)

// query GI50 value for entry `CC(C)Nc1n[nH]c(=O)n1C(C)C`
> 100 µM (inactive)

// query GI50 value for entry `C=CCN1C(=O)N/C(=C\c2ccc(Cl)cc2)C1=O`
> 100 µM (inactive)

// query GI50 value for entry `O=c1cc(-c2ccccc2)oc2c(-c3cc(Cl)cc4c(=O)cc(-c5ccccc5)oc34)cc(Cl)cc12`
32.7 µM (inactive)

// query GI50 value for entry `CCN(CC)c1ccc2nc3ccc(/N=N/c4c(O)ccc5ccccc45)cc3[n+](-c3ccccc3)c2c1`
> 100 µM (inactive)

// query GI50 value for entry `NCC[Se][Se]CCN`
12.8 µM (inactive)

// query GI50 value for entry `C=CC/C(C(=O)OC)=C(/C(=O)OC)N(CCC)CCC`
> 100 µM (inactive)

// query GI50 value for entry `FC(F)(F)c1cnc(N/N=C(/c2ccccc2)c2ccccn2)c(Cl)c1`
5.57 µM (inactive)

// query GI50 value for entry `COc1ccc(-n2c(C)nc3ccc(/N=C/c4ccccc4)cc3c2=O)cc1`
> 100 µM (inactive)

// query GI50 value for entry CC1CNC(c2ccc3c(c2)Cc2cc(C4=NC(C)CN4)ccc2-3)=N1 (configuration not stated)
33.6 µM (inactive)

// query GI50 value for entry N#CC(NNC(=O)Cc1ccccc1)c1c(O)ccc2ccccc12 (configuration not stated)
4.19 µM (inactive)

// query GI50 value for entry `O=[N+]([O-])C1(CO)COC2(OC1)c1ccccc1-c1ccccc12`
> 100 µM (inactive)

// query GI50 value for entry `Cc1ccc(C(=O)Nc2ccc(CP(=O)(O)O)cc2)cc1NC(=O)Nc1cc(C(=O)Nc2ccc(CP(=O)(O)O)cc2)ccc1C`
> 100 µM (inactive)

# credit: ChEMBL document CHEMBL1201862
